assay summary: Volume of distribution at steady state in Sprague-Dawley rat at 1 mg/kg, iv by HPLC-MS/MS analysis
Format: ADME, organism-based
conditions used: in vivo, read-out: Vdss
property measured: Vd (L/kg)
Reply numerically in L/kg, unit not repeated.

What value of Vd has been recorded for this entry: O=C(N[C@@H](C(=O)N1CCC[C@H]1c1ncc(-c2ccc(-c3ccc(-c4cnc([C@@H]5CCCN5C(=O)[C@H](NC(=O)C5CC5)c5ccccc5)s4)cc3)cc2)s1)c1ccccc1)C1CC1 1.3

###

assay summary: Cmax in Beagle dog at 0.5 mg/kg, po by HPLC-MS/MS analysis
Format: ADME, organism-based, Canis lupus familiaris
Set-up: dose 0.5 mg/kg, route oral
conditions used: in vivo
property measured: Cmax (ng/mL)
Reply numerically in ng/mL, unit not repeated.

What value of Cmax has been recorded for this entry: O=C(N[C@@H](C(=O)N1CCC[C@H]1c1ncc(-c2ccc(-c3ccc(-c4cnc([C@@H]5CCCN5C(=O)[C@H](NC(=O)C5CC5)c5ccccc5)s4)cc3)cc2)s1)c1ccccc1)C1CC1 94.9

These entries and their values trace back to ChEMBL document CHEMBL4387700.
